This section presents compounds with their documented inhibition of aggregation values.
- TEST METHOD NOTES: reduction of polyQ htt aggregates in cells – imaging, exon1htt(103Q)mCFP cells, high-content imaging, primary screen (AID 483);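 also: compound exposure lasted 3 days before fixation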
- STATED CONDITIONS: exon1htt(103Q)mCFP cell line, aggregate imaging, at 2 µM; stronger effect = higher value
Give the quantity in %, number only.

Past entries and their recorded results:
COMPOUND: c1cnc2c(SCc3ccc(-c4nnco4)cc3)cccc2c1
U: %
inhibition of aggregation: -3.7

COMPOUND: Cc1ccc2[nH]c(=O)c(-c3noc(-c4ccncc4)n3)cc2c1
U: %
inhibition of aggregation: -82.1

COMPOUND: CC1CN(C(=O)c2cc3cc(Cl)cc(Cl)c3oc2=O)CC(C)O1 (stereo unspecified)
U: %
inhibition of aggregation: 1

COMPOUND: O=C(NCc1cccnc1)c1ccc2c(c1)OCO2
U: %
inhibition of aggregation: -7.2

COMPOUND: CC(=O)NC(Cc1c[nH]c2ccccc12)C(=O)OCC(=O)Nc1cc(C)on1 (stereo unspecified)
U: %
inhibition of aggregation: 0.7

Now consider the entry below.
Entry Cn1c(=O)c2c(nc(NCc3ccccc3)n2CCCc2ccccc2)n(C)c1=O has what inhibition of aggregation?
5.6

---

- TEST METHOD NOTES: endothelial E-selectin expression blockers – imaging, HUVEC, immunofluorescence, MLSMR starter and 10KST1 sets, primary screen (AID 487);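 also: signal is fraction of cell area covered by stained E-selectin grains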
- STATED CONDITIONS: HUVEC TNFalpha-induced E-selectin immunofluorescence imaging, at 2 µM; stronger effect = higher value
Active and inactive are the calls of the source.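 The calls were made as follows: active = visually confirmed hit in the image check and inhibition above 20%; inconclusive = visually confirmed hit but inhibition not above 20%; inactive = no visual hit in the image check.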
A collection of compounds and their measured inhibition

COMPOUND: COC(=O)Nc1nc2c(C)cccc2s1
REPORTED VALUE: -33.7% (inactive)
--
COMPOUND: COc1cccc(NC(=O)N2CCN(C(=O)C(Cc3ccc(OC)c(OC)c3)NC(C)=O)CC2)c1 (configuration not stated)
REPORTED VALUE: -47.6% (inactive)
--
COMPOUND: CC1CN(C(=O)c2cc3cc(Cl)cc(Cl)c3oc2=O)CC(C)O1 (configuration not stated)
REPORTED VALUE: -24.5% (inactive)
--
COMPOUND: CCN(Cc1cc2cc(OC)ccc2[nH]c1=O)C(=O)c1ccncc1
REPORTED VALUE: -34.1% (inactive)
--
COMPOUND: COc1ccc(N(CC(=O)Nc2ccc(F)c(Cl)c2)S(=O)(=O)c2c(C)noc2C)cc1
REPORTED VALUE: -23.6% (inactive)

What value of measured inhibition is listed for COc1cc(SC)ccc1C(=O)Nc1ccon1 ?
20.1% (inactive)

Entry COc1ccc(N2CCN(C(=O)C(C)(C)Oc3ccc(Cl)cc3)CC2)cc1 has what inhibition?
0% (inactive)

---

- TEST METHOD NOTES: TLR3 IRF3 reporter activation blockers – cell-based, poly I:C stimulus, luciferase, 10K MLSCN set, primary screen (AID 602277)
- STATED CONDITIONS: HEK293-TLR3 RL24 IRF3 luciferase reporter, at 10 µM, stronger effect = higher value
Measured inhibition accompanies every entry in the list below.
All answers are understood in %, so give the number only.

Looking for the measured inhibition of O=C(Cn1nc(Cc2ccncc2)c2ccccc2c1=O)N1CCN(C(=O)c2ccco2)CC1 , can you help?
21.1

---

- TEST METHOD NOTES: blockers of RIG-like receptor reporter activation – cell-based, Sendai virus stimulus, luciferase, 10K MLSCN set, TLR/RLR signaling modifier project, primary screen (AID 602276);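 also: firefly luciferase from ISG56 promoter only with Renilla not read in this screen; 0% = Sendai virus plus DMSO and 100% = medium plus DMSO without virus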
- STATED CONDITIONS: HEK293 RL24 IRF3 luciferase reporter, at 10 µM, stronger effect = higher value
Param threshold (10%) applies to inhibition; output Satisfied when value >= threshold, Not satisfied when value < threshold.

Is it the case that CCOc1cc(/C=N/n2cnnc2)cc(Br)c1O has inhibition reaching or exceeding 10%?
Satisfied

Can Nn1c(SCC(=O)Nc2ccc3c(c2)OCO3)nnc1C1CC1 be said to have inhibition at or above 10%?
Not satisfied

Would you say O=S(=O)(c1cccc(-c2nnco2)c1)N1CCCC1 shows inhibition at minimum 10%?
Not satisfied
